Target: KRas G12S (Homo sapiens, UniProt P01116, G12S)
Sequence (P01116 1-169 isoform P01116-2 G12S): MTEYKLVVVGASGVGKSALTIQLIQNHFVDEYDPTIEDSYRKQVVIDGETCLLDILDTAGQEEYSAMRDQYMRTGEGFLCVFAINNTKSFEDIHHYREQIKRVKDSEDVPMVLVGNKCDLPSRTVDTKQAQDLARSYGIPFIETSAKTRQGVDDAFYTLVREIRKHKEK
Assay type: binding
Conditions: TR-FRET displacement, read-out: Binding to KRas (IC50 nM) G12S
Quantity Name: IC50 (nM)
Answer format: numeric, nM implied, no suffix.

Quick one: IC50 for CCc1cccc2cccc(N3CCc4c(nc(OCC5(CN(C)C)CC5)nc4N4CC(C)CC(CO)C4)C3)c12 (stereo not drawn) ? 1560

Quick one: IC50 for CCc1cccc2cccc(N3CCc4c(nc(OCC5(CN(C)C)CC5)nc4NC4CN(c5nccn6nc(C)cc56)C4)C3)c12 ? 9980

Quick one: IC50 for Oc1cc(Cl)c(C2CC2)c(N2CCc3c(nc(OCC45CCCN4CCC5)nc3N3CCC[C@]4(C3)C[C@H](O)C4)C2)c1 ? 41

Quick one: IC50 for CCc1cccc2cccc(N3CCc4c(nc(OCC5(CN(C)C)CC5)nc4NC4CN(C(=O)NC)C4)C3)c12 ? 7090

Data provenance is patent US20250368649A1.
